# Tested on: 616215-338-R-J1-PDC tumor spheroids, viability;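 note: spheroids exposed to agents for 7 days before readout; percent viability relative to DMSO vehicle control wells taken as 100%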
# Experiment: Anticancer human tumor 616215-338-R-J1-PDC patient-derived colon adenocarcinoma cell line growth inhibition [GQUAD]
# Recorded Conditions: second compound 1 µM; first compound 3.16 µM; hits give low values; spheroids with HUVEC and MSC
Reported Metric: viability, T/C (%)
The response must be a number in % with no trailing unit.

GET /values?readout=viability, T/C&item= C=CCn1c(=O)c2cnc(Nc3ccc(N4CCN(C)CC4)cc3)nc2n1-c1cccc(C(C)(C)O)n1 + Cc1[nH]c2ccc(F)cc2c1-c1nc2c3cccnc3c3ncccc3c2[nH]1
14.2

Any idea what its viability, T/C is? The compound is CC(C)(O)C1CCC(Nc2ccc3ncc(-c4cccc(C(F)(F)F)c4)n3n2)CC1 (stereo not drawn) + Cc1[nH]c2ccc(F)cc2c1-c1nc2c3cccnc3c3ncccc3c2[nH]1
0.55

Which measured viability, T/C value corresponds to C=CC(=O)N1CCN(c2nc(=O)n(-c3c(C)ccnc3C(C)C)c3nc(-c4c(O)cccc4F)c(F)cc23)C(C)C1 (stereo not drawn) + Cc1[nH]c2ccc(F)cc2c1-c1nc2c3cccnc3c3ncccc3c2[nH]1 ?
92.5
